molecular target: trypsin-activated recombinant human renin (Homo sapiens, UniProt P00797); experiment: Renin fluorescence assay (internally quenched peptide substrate); type: biochemical; conditions: compounds I*
Sequence (P00797 67-406): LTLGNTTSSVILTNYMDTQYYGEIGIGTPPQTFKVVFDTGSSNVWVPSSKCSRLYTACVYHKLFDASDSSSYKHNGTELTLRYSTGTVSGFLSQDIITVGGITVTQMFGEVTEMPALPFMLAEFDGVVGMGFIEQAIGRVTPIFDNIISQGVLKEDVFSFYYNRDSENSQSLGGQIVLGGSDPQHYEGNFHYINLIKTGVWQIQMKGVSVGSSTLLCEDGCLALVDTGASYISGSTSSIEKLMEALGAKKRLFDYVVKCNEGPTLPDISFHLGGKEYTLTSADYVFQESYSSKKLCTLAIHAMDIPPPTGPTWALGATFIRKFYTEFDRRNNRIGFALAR
Quick list: IC50 per entry.
Readout: IC50

COC(=O)NCCO[C@@H](c1cccc(Cl)c1)[C@@H]1CCCN(C(=O)N[C@](C)(CN)CC2CCCCC2)C1 [I*-59a]
< 10 nM
CNC[C@@H](NC(=O)N1CCC[C@@H]([C@@H](OCCNC(=O)OC)c2cccc(Cl)c2F)C1)[C@@H](O)C1CCCCC1 [I*-138a]
< 10 nM
CNC[C@H](CC1CCOCC1)NC(=O)N1CCC[C@@H]([C@@H](OCCNC(=O)OC)c2cccs2)C1 [I*-15a]
> 50 nM
CN[C@H](CNC(=O)N1CCC[C@@H]([C@@H](OCCNC(=O)OC)c2cc(Cl)ccc2C)C1)C[C@H]1CCCCOC1 [I*-133a]
< 1 nM
CNC[C@H](CC1CCOCC1)NC(=O)N1CCC[C@@H]([C@@H](OCCNC(=O)OC)c2cc(F)cc(Cl)c2)C1 [I*-121a]
< 20 nM
CNC[C@H](C[C@H]1CCCCOC1)NC(=O)N1CCC[C@@H]([C@@H](OCCNC(=O)OC)c2cccc(F)c2)C1 [I*-55a]
< 1 nM
CNC[C@H](CC1CCOCC1)NC(=O)N1CCC[C@@H]([C@@H](OCCNC(=O)OC)c2cccc(F)c2)C1 [I*-26a]
< 50 nM

Source of measurements: patent US8487108B2
